Form field: Plant response rating, Blackgrass (one value per entry).
tested on: blackgrass; test: Test E blackgrass; assay type: in vivo, Alopecurus myosuroides; conditions: Preemergence, Rate 250 g/ha; 0 to 100 scale
Could you respond with only the numeric value?

Known Plant response rating, Blackgrass results, listed for orientation:
# Compound, Plant response rating, Blackgrass
data = [
    ("C=CCn1c(=O)on(C(=O)N(c2ccccc2)C(C)C)c1=O [Compound 93]", 75),
    ("CC(C)N(C(=O)n1oc(=O)n(C2CCCCC2)c1=O)c1ccc(F)cc1 [Compound 110]", 60),
    ("CCCn1c(=O)on(C(=O)N(c2ccc(Cl)cc2)C(C)C)c1=O [Compound 119]", 50),
]

Okay, now this compound:
Q: Respond only with Plant response rating, Blackgrass recorded for CC(C)N(C(=O)n1oc(=O)n(C(C)CCl)c1=O)c1ccc(F)cc1 (stereo not shown) [Compound 367]
Ans: 30

###

tested on: sugar beet; assay: Test B pre/postemergence sugar beet; format: in vivo, Beta vulgaris; settings: Postemergence, Rate 500 g/ha; scale of 0 to 10 where 0 is no effect and 10 is complete control
Metric: Plant response rating, Sugarbeets
Could you respond with only the numeric value?

Known Plant response rating, Sugarbeets results, listed for orientation:
# Compound, Plant response rating, Sugarbeets
rows = [
    ("CC(C)N(C(=O)n1oc(=O)n(CCCCF)c1=O)c1ccccc1", 8),
    ("CC(=O)OCC(CCl)n1c(=O)on(C(=O)N(c2ccc(F)cc2)C(C)C)c1=O (centres unmarked)", 0),
    ("CC(C)N(C(=O)n1oc(=O)n(CC2CC2)c1=O)c1ccccc1", 2),
    ("CCOC(=O)C=C(Cn1c(=O)on(C(=O)N(c2ccccc2)C(C)C)c1=O)OCC", 4),
]

Okay, now this compound:
Q: Respond only with Plant response rating, Sugarbeets recorded for CCC(C)n1c(=O)on(C(=O)N(c2ccc(F)cc2)C(C)C)c1=O (centres unmarked)
Ans: 0

###

System: pigweed
Assay: Test B pre/postemergence pigweed
Format: in vivo, Amaranthus retroflexus
Conditions: Preemergence, Rate 62 g/ha; scale 0 to 10, 0 is no effect, 10 is complete control
Description: […] At the same time, these crop and weed species were also treated with postemergence applications of test chemicals formulated in the same manner. […] Treated plants and controls were maintained in a greenhouse for twelve to sixteen days, after which all species were compared to controls and visually evaluated. […]
Form field: Plant response rating, Redroot pigweed (one value per entry).
Could you respond with only the numeric value?

Known Plant response rating, Redroot pigweed results, listed for orientation:
# Molecule, Plant response rating, Redroot pigweed
measured = [
    ("Cc1ccccc1-n1c(=O)on(C(=O)N(c2ccc(C#N)cc2)C(C)C)c1=O", 0),
    ("CCN(C(=O)n1oc(=O)n(-c2ccc(C)cc2C)c1=O)C1CCCCC1", 0),
    ("Cc1ccccc1-n1c(=O)on(C(=O)N(C2=CCOCC2)C(C)C)c1=O", 0),
    ("Cc1ccccc1-n1c(=O)on(C(=O)N(c2ccc(Cl)cc2)C(C)C)c1=O", 0),
]

Q: Param request: Plant response rating, Redroot pigweed | system pigweed | item Cc1ccccc1-n1c(=O)on(C(=O)N(c2ccc(F)cc2)C(C)C)c1=O
Ans: 2

###

Form field: Rape plant response rating (one value per entry).
test system: rape; assay: Test B pre/postemergence rape; type: in vivo, Brassica napus; conditions: Preemergence, Rate 62 g/ha; scale of 0 to 10 where 0 is no effect and 10 is complete control
Could you respond with only the numeric value?

Q: Respond only with Rape plant response rating recorded for CCN(CC)C(=O)n1oc(=O)n(C2CC2)c1=O
Ans: 0

Q: Respond only with Rape plant response rating recorded for CC(C)N(C(=O)n1oc(=O)n(CCCF)c1=O)c1ccc(F)cc1
Ans: 4

Q: Respond only with Rape plant response rating recorded for CC(C)Cn1c(=O)on(C(=O)N(c2ccc(F)cc2)C(C)C)c1=O
Ans: 2

Q: Respond only with Rape plant response rating recorded for CC(C)N(C(=O)n1oc(=O)n(C2CC2)c1=O)c1ccc(Cl)cc1
Ans: 0

Q: Respond only with Rape plant response rating recorded for CC(C)=CCn1c(=O)on(C(=O)N(c2ccc(F)cc2)C(C)C)c1=O
Ans: 0

###

system: blackgrass; experiment: Test B pre/postemergence blackgrass; assay type: in vivo, Alopecurus myosuroides; conditions: Rate 250 g/ha, Postemergence; scale of 0 to 10 where 0 is no effect and 10 is complete control
Form field: Plant response rating, Blackgrass (one value per entry).
Could you respond with only the numeric value?

Known Plant response rating, Blackgrass results, listed for orientation:
# Compound, Plant response rating, Blackgrass
measured = [
    ("Cc1c(-n2c(=O)on(C(=O)N(c3ccc(F)cc3)C(C)C)c2=O)ccc2ccccc12", 0),
    ("CCCCCn1c(=O)on(C(=O)N(c2ccc(Cl)cc2)C(C)C)c1=O", 0),
    ("C=CCn1c(=O)on(C(=O)N(c2ccc(F)cc2)C(C)C(=O)OCC)c1=O (centres unmarked)", 2),
    ("CC(C)N(C(=O)n1oc(=O)n(CCCCF)c1=O)c1ccccc1", 4),
    ("CCOC(=O)C=C(Cn1c(=O)on(C(=O)N(c2ccc(F)cc2F)C(C)C)c1=O)OCC", 0),
]

Q: Respond only with Plant response rating, Blackgrass recorded for CCOCn1c(=O)on(C(=O)N(c2ccccc2)C(C)C)c1=O
Ans: 4

###

tested on: blackgrass; test: Test B pre/postemergence blackgrass; assay type: in vivo, Alopecurus myosuroides; conditions: Preemergence, Rate 250 g/ha; scale of 0 to 10 where 0 is no effect and 10 is complete control
Form field: Plant response rating, Blackgrass (one value per entry).
Could you respond with only the numeric value?

Known Plant response rating, Blackgrass results, listed for orientation:
# Molecule, Result
data = [
    ("Cc1ccccc1Cn1c(=O)on(C(=O)N(c2ccc(F)cc2)C(C)C)c1=O", 4),
    ("CCN(CC)C(=O)n1oc(=O)n(-c2cccc3c2CCCC3)c1=O", 0),
    ("CC(C)N(C(=O)n1oc(=O)n(C2CCCCC2)c1=O)c1ccc(F)cc1", 7),
]

Q: Respond only with Plant response rating, Blackgrass recorded for Cc1cccc(C)c1-n1c(=O)on(C(=O)N(c2ccccc2)C(C)C)c1=O
Ans: 2

Q: Respond only with Plant response rating, Blackgrass recorded for Cc1ccccc1-n1c(=O)on(C(=O)N(c2ccc(F)cc2)C(C)C)c1=O
Ans: 8

Q: Respond only with Plant response rating, Blackgrass recorded for COc1ccc(-n2c(=O)on(C(=O)N(C3=CCOCC3)C(C)C)c2=O)cc1
Ans: 0

###

Form field: Plant response rating, C. ragweed (one value per entry).
test system: common ragweed; test: Test D common ragweed; format: in vivo, Ambrosia elatior; details: Rate 500 g/ha; Preemergence; 0 to 100 scale

Known Plant response rating, C. ragweed results, listed for orientation:
# Molecule, Plant response rating, C. ragweed
rows = [
    ("Cc1ccccc1-n1c(=O)on(C(=O)N(c2ccc(F)cc2)C(C)C)c1=O", 0),
    ("Cc1cccc(C)c1-n1c(=O)on(C(=O)N(c2ccccc2)C(C)C)c1=O", 0),
    ("CC(C)N(C(=O)n1oc(=O)n(Cc2cccs2)c1=O)c1ccccc1", 0),
]

Q: Respond only with Plant response rating, C. ragweed recorded for C=CCn1c(=O)on(C(=O)N(c2ccccc2)C(C)C)c1=O
Ans: 80

###

tested on: velvetleaf; experiment: Test B pre/postemergence velvetleaf; type: in vivo, Abutilon theophrasti; conditions: Rate 250 g/ha, Postemergence; scale 0 to 10, 0 is no effect, 10 is complete control
Form field: Velvetleaf plant response rating (one value per entry).
Could you respond with only the numeric value?

Q: Param request: Velvetleaf plant response rating | system velvetleaf | item C#CCn1c(=O)on(C(=O)N(c2ccc(F)cc2)C(C)C)c1=O [Compound 743]
Ans: 0

Q: Param request: Velvetleaf plant response rating | system velvetleaf | item COC(=O)C(c1ccccc1)n1c(=O)on(C(=O)N(c2ccc(F)cc2)C(C)C)c1=O (stereo not shown) [Compound 677]
Ans: 0

Q: Param request: Velvetleaf plant response rating | system velvetleaf | item CCC(C)n1c(=O)on(C(=O)N(c2ccc(F)cc2)C(C)C)c1=O (stereo not shown) [Compound 751]
Ans: 2

Q: Param request: Velvetleaf plant response rating | system velvetleaf | item C#CCCn1c(=O)on(C(=O)N(c2ccc(F)cc2F)C(C)C)c1=O [Compound 744]
Ans: 0

###

tested on: sugar beet; assay: Test B pre/postemergence sugar beet; assay type: in vivo, Beta vulgaris; settings: Preemergence, Rate 125 g/ha; 0 is no effect, 10 is complete control
Form field: Sugarbeets plant response rating (0 to 10 scale) (one value per entry).
Could you respond with only the numeric value?

Q: Respond only with Sugarbeets plant response rating (0 to 10 scale) recorded for Cc1cnn(C)c1-n1c(=O)on(C(=O)N(c2ccc(F)cc2)C(C)C)c1=O
Ans: 0

###

Form field: Plant response rating, Crabgrass (one value per entry).
test system: crabgrass; experiment: Test B pre/postemergence crabgrass; assay type: in vivo, Digitaria sanguinalis; conditions: Preemergence, Rate 125 g/ha; scale of 0 to 10 where 0 is no effect and 10 is complete control

Known Plant response rating, Crabgrass results, listed for orientation:
# Molecule, Plant response rating, Crabgrass
measured = [
    ("CC(C)N(C(=O)n1oc(=O)n(C(C)CCl)c1=O)c1ccc(F)cc1F (stereo not shown) [Compound 408]", 10),
    ("CC(C)N(C(=O)n1oc(=O)n(C(C)C2CC2)c1=O)c1ccc(F)cc1 (stereo not shown) [Compound 404]", 10),
    ("Cc1nc(Cl)sc1C(C)n1c(=O)on(C(=O)N(c2ccc(Cl)cc2)C(C)C)c1=O (stereo not shown) [Compound 406]", 0),
]

Okay, now this molecule:
Q: Respond only with Plant response rating, Crabgrass recorded for COC(CCl)n1c(=O)on(C(=O)N(c2ccc(F)cc2F)C(C)C)c1=O (stereo not shown) [Compound 737]
Ans: 9
